molecular target: Muscarinic acetylcholine receptor M1 (Homo sapiens, UniProt P11229); assay: Inhibition of [3H]NMS binding to human muscarinic acetylcholine receptor M1 in transfected CHO cells.
Sequence (P11229 whole entry): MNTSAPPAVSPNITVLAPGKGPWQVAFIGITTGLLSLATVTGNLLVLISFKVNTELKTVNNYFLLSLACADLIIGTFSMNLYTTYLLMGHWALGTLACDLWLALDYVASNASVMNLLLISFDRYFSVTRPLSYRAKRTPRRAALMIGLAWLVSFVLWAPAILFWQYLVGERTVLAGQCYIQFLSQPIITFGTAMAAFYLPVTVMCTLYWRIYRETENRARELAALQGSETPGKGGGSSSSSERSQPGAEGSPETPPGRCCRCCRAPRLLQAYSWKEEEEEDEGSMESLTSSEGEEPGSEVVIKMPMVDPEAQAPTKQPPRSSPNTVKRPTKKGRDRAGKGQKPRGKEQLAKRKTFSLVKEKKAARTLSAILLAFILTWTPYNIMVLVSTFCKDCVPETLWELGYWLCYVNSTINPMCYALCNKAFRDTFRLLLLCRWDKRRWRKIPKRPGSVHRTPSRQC
pKi: −log10 of the molar value.
property.label: pKi

CCCCc1[nH]c2ccc3c(c2c1C(=O)OCC)CN1CCc2cc(SC)ccc2C1O3 (stereo unspecified) : 6.06
CCCCOC(=O)c1c(C)[nH]c2ccc3c(c12)CN1CCc2cc(OC)ccc2C1O3 (stereo unspecified) : 5.88
COc1ccc2c(c1)CCN1Cc3c(ccc4[nH]c(C)c(C(=O)OCc5ccccc5)c34)OC21 (stereo unspecified) : 5.93
CCOC(=O)c1c(CC)[nH]c2ccc3c(c12)CN1CCc2cc(OC)ccc2C1O3 (stereo unspecified) : 5.66
CCOC(=O)c1c(C)[nH]c2ccc3c(c12)CN1CCc2cc(SC)ccc2C1O3 (stereo unspecified) : 5.75
CCCc1[nH]c2ccc3c(c2c1C(=O)OCC)CN1CCc2cc(SC)ccc2C1O3 (stereo unspecified) : 6.06

A = CCOC(=O)c1c(C)[nH]c2ccc3c(c12)CN1CCc2cc(OC)ccc2C1O3 (stereo unspecified)
B = CCCc1c(C(=O)OCC)c2c3c(ccc2n1C)OC1c2ccc(SC)cc2CCN1C3 (stereo unspecified)
C = CCN(C)C(=O)c1c(C)[nH]c2ccc3c(c12)CN1CCc2cc(OC)ccc2C1O3 (stereo unspecified)
Give the ascending ranking of the items by reported pKi. As an answer, provide the labels arranged in the order called for. C, B, A
(C: 4.66, B: 5.48, A: 5.88)

---

target: Muscarinic acetylcholine receptor M2 (Homo sapiens, UniProt P08172); assay: Inhibition of [3H]-NMS binding to human muscarinic acetylcholine receptor M2 in transfected CHO cells.
Sequence (P08172 whole entry): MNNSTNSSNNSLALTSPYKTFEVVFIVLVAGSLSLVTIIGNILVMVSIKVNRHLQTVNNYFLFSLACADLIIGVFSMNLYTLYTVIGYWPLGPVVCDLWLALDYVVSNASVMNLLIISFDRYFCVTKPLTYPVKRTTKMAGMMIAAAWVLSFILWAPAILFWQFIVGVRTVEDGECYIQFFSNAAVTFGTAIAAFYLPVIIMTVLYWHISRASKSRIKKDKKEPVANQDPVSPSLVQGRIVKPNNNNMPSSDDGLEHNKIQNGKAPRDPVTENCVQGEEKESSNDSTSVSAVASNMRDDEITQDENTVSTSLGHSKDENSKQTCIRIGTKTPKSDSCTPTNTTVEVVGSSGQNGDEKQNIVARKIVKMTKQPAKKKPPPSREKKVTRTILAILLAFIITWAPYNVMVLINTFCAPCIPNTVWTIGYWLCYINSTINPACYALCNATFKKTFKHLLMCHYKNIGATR
property.label: Ki (nM)

Solved cases below.
CCOC(=O)c1c(CC)n(C)c2ccc3c(c12)CN1CCc2cc(OC)ccc2C1O3 (stereo unspecified) : 708
CCOC(=O)c1c(C)[nH]c2ccc3c(c12)CN1CCc2cc(OC)ccc2C1O3 (stereo unspecified) : 537
COC(=O)c1c(C)n(C)c2ccc3c(c12)CN1CCc2cc(OC)ccc2C1O3 (stereo unspecified) : 417
CCCc1[nH]c2ccc3c(c2c1C(=O)OCC)CN1CCc2cc(OC)ccc2C1O3 (stereo unspecified) : 1070

1 = CCCc1c(C(=O)OCC)c2c3c(ccc2n1C)OC1c2ccc(SC)cc2CCN1C3 (stereo unspecified)
2 = COc1ccc2c(c1)CCN1Cc3c(ccc4[nH]c(C)c(C(=O)OCc5ccccc5)c34)OC21 (stereo unspecified)
Choose between 1 and 2 : whose measured Ki value is numerically larger? Mark your answer with the label of the selected entry. 1

a = CCOC(=O)c1c(C)n(C)c2ccc3c(c12)CN1CCc2cc(OC)ccc2C1O3 (stereo unspecified)
b = CCOC(=O)c1c(C)[nH]c2ccc3c(c12)CN1CCc2cccc(Cl)c2C1O3 (stereo unspecified)
Short answer wanted: higher Ki, a or b ? Mark your selection by writing its label. b

---

biological target: Muscarinic acetylcholine receptor M2 (Homo sapiens); test: Inhibition of [3H]-NMS binding to human muscarinic acetylcholine receptor M2 in transfected CHO cells.
pKi: −log10 of the molar value.
property.label: pKi

Some compounds with known pKi results, for comparison:
CCCc1[nH]c2ccc3c(c2c1C(=O)OCC)CN1CCc2cc(SC)ccc2C1O3 (stereo not drawn) : 5.84
CCOC(=O)c1c(C)n(CC)c2ccc3c(c12)CN1CCc2cc(OC)ccc2C1O3 (stereo not drawn) : 6.66
CCOC(=O)c1c(CC)n(Cc2ccccc2)c2ccc3c(c12)CN1CCc2cc(OC)ccc2C1O3 (stereo not drawn) : 6.43
CCOC(=O)c1c(C)[nH]c2ccc3c(c12)CN1CCc2cc(Cl)ccc2C1O3 (stereo not drawn) : 5.49

P = CCCCOC(=O)c1c(C)[nH]c2ccc3c(c12)CN1CCc2cc(OC)ccc2C1O3 (stereo not drawn)
Q = CCOC(=O)c1c(CC)[nH]c2ccc3c(c12)CN1CCc2cc(OC)ccc2C1O3 (stereo not drawn)
R = CCCCCCc1[nH]c2ccc3c(c2c1C(=O)OCC)CN1CCc2cc(OC)ccc2C1O3 (stereo not drawn)
List these items ordered by pKi, big to small. Answer format: list of labels, ordered as asked. Q, P, R
(Q: 5.87, P: 5.63, R: 5.34)
